experiment: clinical; settings: human, in vivo, po, 300 mg

smiles-repr | AUC
CC(=O)NCCCC[C@@H]1NC(=O)[C@H](Cc2c[nH]c3c(C)cccc23)NC(=O)[C@H]([C@@H](C)O)NC(=O)[C@H](CC(N)=O)NC(=O)[C@@H](NC(C)=O)C(C)(C)SSC(C)(C)[C@@H](C(=O)N[C@@H](Cc2ccc(OCCN)cc2)C(=O)N[C@@H](Cc2ccc3ccccc3c2)C(=O)NC2(C(=O)N[C@@H](CCC(=O)O)C(=O)N[C@@H](CC(N)=O)C(=O)N[C@@H](Cc3cccnc3)C(=O)N(C)CC(N)=O)CCOCC2)NC1=O | 51 ng·h/mL

###

experiment: Rat PK Study 1: intraduodenal/intracolonic dosing with absorption enhancers; format: in vivo, Sprague Dawley rats; conditions: male, Sprague Dawley, plasma, other: intraduodenal, 10 mg/kg, ID dose 10 mg/kg, no absorption enhancer
metric: Tmax

smiles-repr | measurement
CC(=O)NCCCC[C@@H]1NC(=O)[C@H](Cc2c[nH]c3c(C)cccc23)NC(=O)[C@H]([C@@H](C)O)NC(=O)[C@H](CC(N)=O)NC(=O)[C@@H](NC(C)=O)C(C)(C)SSC(C)(C)[C@@H](C(=O)N[C@@H](Cc2ccc(OCCN)cc2)C(=O)N[C@@H](Cc2ccc3ccccc3c2)C(=O)NC2(C(=O)N[C@@H](CCC(=O)O)C(=O)N[C@@H](CC(N)=O)C(=O)N[C@@H](Cc3cccnc3)C(=O)N(C)CC(N)=O)CCOCC2)NC1=O | 40 min

###

test: Solubility of acetate form of SEQ ID NO: 1 in various media; format: physicochemical; details: aqueous buffer; Phosphate buffer pH 12

compound | solubility
CC(=O)NCCCC[C@@H]1NC(=O)[C@H](Cc2c[nH]c3c(C)cccc23)NC(=O)[C@H]([C@@H](C)O)NC(=O)[C@H](CC(N)=O)NC(=O)[C@@H](NC(C)=O)C(C)(C)SSC(C)(C)[C@@H](C(=O)N[C@@H](Cc2ccc(OCCN)cc2)C(=O)N[C@@H](Cc2ccc3ccccc3c2)C(=O)NC2(C(=O)N[C@@H](CCC(=O)O)C(=O)N[C@@H](CC(N)=O)C(=O)N[C@@H](Cc3cccnc3)C(=O)N(C)CC(N)=O)CCOCC2)NC1=O [Acetate Form of SEQ ID NO: 1] | > 440 mg/mL

###

assay: Rat PK Study 1: intraduodenal/intracolonic dosing with absorption enhancers; format: in vivo, Sprague Dawley rats; conditions: male, Sprague Dawley, plasma, other: intraduodenal, 10 mg/kg, ID dose 10 mg/kg, Enteris A 60 mg/kg
metric: AUC(0-inf) (ng·h/mL)

compound | measurement
CC(=O)NCCCC[C@@H]1NC(=O)[C@H](Cc2c[nH]c3c(C)cccc23)NC(=O)[C@H]([C@@H](C)O)NC(=O)[C@H](CC(N)=O)NC(=O)[C@@H](NC(C)=O)C(C)(C)SSC(C)(C)[C@@H](C(=O)N[C@@H](Cc2ccc(OCCN)cc2)C(=O)N[C@@H](Cc2ccc3ccccc3c2)C(=O)NC2(C(=O)N[C@@H](CCC(=O)O)C(=O)N[C@@H](CC(N)=O)C(=O)N[C@@H](Cc3cccnc3)C(=O)N(C)CC(N)=O)CCOCC2)NC1=O [SEQ ID NO: 1] | 964

###

assay: Colon and colonic content concentrations in rat TNBS colitis model (LC-MS/MS); type: in vivo, Sprague Dawley rats; conditions: Sprague Dawley, colon content, po, 0.033 mg/kg, Study 3, 0.033 mg/kg TID oral, total daily dose 0.1 mg/kg, read-out: Mean concentration in Colon content

compound | value-units | tissue level at time at 168 h
CC(=O)NCCCC[C@@H]1NC(=O)[C@H](Cc2c[nH]c3c(C)cccc23)NC(=O)[C@H]([C@@H](C)O)NC(=O)[C@H](CC(N)=O)NC(=O)[C@@H](NC(C)=O)C(C)(C)SSC(C)(C)[C@@H](C(=O)N[C@@H](Cc2ccc(OCCN)cc2)C(=O)N[C@@H](Cc2ccc3ccccc3c2)C(=O)NC2(C(=O)N[C@@H](CCC(=O)O)C(=O)N[C@@H](CC(N)=O)C(=O)N[C@@H](Cc3cccnc3)C(=O)N(C)CC(N)=O)CCOCC2)NC1=O [SEQ ID NO: 1] | ng/g | 567

###

assay: Colon and colonic content concentrations in rat TNBS colitis model (LC-MS/MS); assay type: in vivo, Sprague Dawley rats; conditions: Sprague Dawley, colon content, po, 3.3 mg/kg, Study 2, 3.3 mg/kg TID oral, total daily dose 10 mg/kg, read-out: Mean concentration in Colon content
metric: tissue level at time at 168 h (ng/g)

smiles-repr | measurement
CC(=O)NCCCC[C@@H]1NC(=O)[C@H](Cc2c[nH]c3c(C)cccc23)NC(=O)[C@H]([C@@H](C)O)NC(=O)[C@H](CC(N)=O)NC(=O)[C@@H](NC(C)=O)C(C)(C)SSC(C)(C)[C@@H](C(=O)N[C@@H](Cc2ccc(OCCN)cc2)C(=O)N[C@@H](Cc2ccc3ccccc3c2)C(=O)NC2(C(=O)N[C@@H](CCC(=O)O)C(=O)N[C@@H](CC(N)=O)C(=O)N[C@@H](Cc3cccnc3)C(=O)N(C)CC(N)=O)CCOCC2)NC1=O | 73500

###

test: Rat PK Study 1: intraduodenal/intracolonic dosing with absorption enhancers; type: in vivo, Sprague Dawley rats; settings: male, Sprague Dawley, plasma, other: intraduodenal, 10 mg/kg, ID dose 10 mg/kg, NaC10 100 mg/kg

smiles-repr | AUC(0-inf) [ng·h/mL]
CC(=O)NCCCC[C@@H]1NC(=O)[C@H](Cc2c[nH]c3c(C)cccc23)NC(=O)[C@H]([C@@H](C)O)NC(=O)[C@H](CC(N)=O)NC(=O)[C@@H](NC(C)=O)C(C)(C)SSC(C)(C)[C@@H](C(=O)N[C@@H](Cc2ccc(OCCN)cc2)C(=O)N[C@@H](Cc2ccc3ccccc3c2)C(=O)NC2(C(=O)N[C@@H](CCC(=O)O)C(=O)N[C@@H](CC(N)=O)C(=O)N[C@@H](Cc3cccnc3)C(=O)N(C)CC(N)=O)CCOCC2)NC1=O | 1190

###

assay: Rat PK Study 1: intraduodenal/intracolonic dosing with absorption enhancers; format: in vivo, Sprague Dawley rats; conditions: male, Sprague Dawley, plasma, other: intraduodenal, 10 mg/kg, ID dose 10 mg/kg, Labrasol 100 mg/kg
metric: Tmax (min)

smiles-repr | measurement
CC(=O)NCCCC[C@@H]1NC(=O)[C@H](Cc2c[nH]c3c(C)cccc23)NC(=O)[C@H]([C@@H](C)O)NC(=O)[C@H](CC(N)=O)NC(=O)[C@@H](NC(C)=O)C(C)(C)SSC(C)(C)[C@@H](C(=O)N[C@@H](Cc2ccc(OCCN)cc2)C(=O)N[C@@H](Cc2ccc3ccccc3c2)C(=O)NC2(C(=O)N[C@@H](CCC(=O)O)C(=O)N[C@@H](CC(N)=O)C(=O)N[C@@H](Cc3cccnc3)C(=O)N(C)CC(N)=O)CCOCC2)NC1=O | 15

###

assay: Rat PK Study 1: intraduodenal/intracolonic dosing with absorption enhancers; type: in vivo, Sprague Dawley rats; settings: male, Sprague Dawley, plasma, other: intracolonic, 10 mg/kg, IC dose 10 mg/kg, Enteris A 60 mg/kg

smiles-repr | AUC(0-t) [ng·h/mL]
CC(=O)NCCCC[C@@H]1NC(=O)[C@H](Cc2c[nH]c3c(C)cccc23)NC(=O)[C@H]([C@@H](C)O)NC(=O)[C@H](CC(N)=O)NC(=O)[C@@H](NC(C)=O)C(C)(C)SSC(C)(C)[C@@H](C(=O)N[C@@H](Cc2ccc(OCCN)cc2)C(=O)N[C@@H](Cc2ccc3ccccc3c2)C(=O)NC2(C(=O)N[C@@H](CCC(=O)O)C(=O)N[C@@H](CC(N)=O)C(=O)N[C@@H](Cc3cccnc3)C(=O)N(C)CC(N)=O)CCOCC2)NC1=O | 561

###

assay: Rat PK Study 1: intraduodenal/intracolonic dosing with absorption enhancers; type: in vivo, Sprague Dawley rats; conditions: male, Sprague Dawley, plasma, other: intraduodenal, 10 mg/kg, ID dose 10 mg/kg, Enteris A 60 mg/kg

compound | value-units | AUC(0-t)
CC(=O)NCCCC[C@@H]1NC(=O)[C@H](Cc2c[nH]c3c(C)cccc23)NC(=O)[C@H]([C@@H](C)O)NC(=O)[C@H](CC(N)=O)NC(=O)[C@@H](NC(C)=O)C(C)(C)SSC(C)(C)[C@@H](C(=O)N[C@@H](Cc2ccc(OCCN)cc2)C(=O)N[C@@H](Cc2ccc3ccccc3c2)C(=O)NC2(C(=O)N[C@@H](CCC(=O)O)C(=O)N[C@@H](CC(N)=O)C(=O)N[C@@H](Cc3cccnc3)C(=O)N(C)CC(N)=O)CCOCC2)NC1=O [SEQ ID NO: 1] | ng·h/mL | 958

###

experiment: Rat PK Study 1: intraduodenal/intracolonic dosing with absorption enhancers; assay type: in vivo, Sprague Dawley rats; settings: male, Sprague Dawley, plasma, other: intracolonic, 10 mg/kg, IC dose 10 mg/kg, Sucrose laurate 100 mg/kg
metric: Cmax

smiles-repr | measurement
CC(=O)NCCCC[C@@H]1NC(=O)[C@H](Cc2c[nH]c3c(C)cccc23)NC(=O)[C@H]([C@@H](C)O)NC(=O)[C@H](CC(N)=O)NC(=O)[C@@H](NC(C)=O)C(C)(C)SSC(C)(C)[C@@H](C(=O)N[C@@H](Cc2ccc(OCCN)cc2)C(=O)N[C@@H](Cc2ccc3ccccc3c2)C(=O)NC2(C(=O)N[C@@H](CCC(=O)O)C(=O)N[C@@H](CC(N)=O)C(=O)N[C@@H](Cc3cccnc3)C(=O)N(C)CC(N)=O)CCOCC2)NC1=O | 191 ng/mL

Source listed as patent US11939361B2.
